- Test system: MRSA (NCIM 5021)
- Assay protocol: Minimum bactericidal concentration (MBC)
- Type: cell-based, methicillin-resistant Staphylococcus aureus
Measurement type: MBC/MIC
Reply with just the number.

### Prompt Give the measured MBC/MIC of `O=C(COc1ccccc1NC(=O)CCl)Nc1ccccc1` .
### Response 3

### Prompt What do you get for `Cc1ccc(C(=O)NNC(=O)COc2ccccc2NC(=O)CCl)cc1` ?
### Response 2

### Prompt Another: `O=C(COc1ccccc1NC(=O)CCl)Nc1ccc(S(=O)(=O)O)cc1`
### Response 4

### Prompt Then what about the compound `O=C(COc1ccccc1NC(=O)CCl)Nc1ccc([N+](=O)[O-])cc1` ?
### Response 1

### Prompt Repeat with `O=C(COc1ccc2ccccc2c1)Nc1ccc(Cl)cc1`
### Response 1
